TESTED_SYSTEM: human FPR1 (Homo sapiens, UniProt P21462)
Construct: expressed in transfected cells
Sequence (P21462 whole entry): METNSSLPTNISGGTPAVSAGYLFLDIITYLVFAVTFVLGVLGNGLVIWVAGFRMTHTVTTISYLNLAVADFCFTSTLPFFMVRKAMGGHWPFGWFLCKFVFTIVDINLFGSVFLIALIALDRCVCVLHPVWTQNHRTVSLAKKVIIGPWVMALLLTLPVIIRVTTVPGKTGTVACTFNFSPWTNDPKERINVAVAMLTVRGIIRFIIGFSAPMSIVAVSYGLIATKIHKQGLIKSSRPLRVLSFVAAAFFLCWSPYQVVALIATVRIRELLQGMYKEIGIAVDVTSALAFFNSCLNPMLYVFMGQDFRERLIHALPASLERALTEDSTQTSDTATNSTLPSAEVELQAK
PROTOCOL_SUMMARY: Calcium mobilization, CHO cells expressing FPR1
Format: cell-based
RUN_CONDITIONS: normalized to ATP 100 µM, mean ± SEM, read-out: [Ca2+]i mobilization FPR1 Emax
Non-standard residues stand in square brackets, D forms with d. Residues, ends and D or L forms follow the SMILES beside them. *: point of attachment. Cha = N[C@@H](CC1CCCCC1)C(=O)O; For = O=C*
# maps each entry to its Emax
The reply should read as a number followed by its unit.

CN[C@H](CC(C)C)C(=O)N[C@H]1C(=O)N[C@@H](CC(N)=O)C(=O)N[C@H]2C(=O)N[C@H]3C(=O)N[C@H](C(=O)N[C@H](C(=O)NCCCn4cc(C[C@H](NC(=O)CNC(=O)[C@H](Cc5ccccc5)NC(=O)[C@H](CC(C)C)NC(=O)[C@H](CCSC)NC=O)C(N)=O)nn4)c4cc(O)cc(O)c4-c4cc3ccc4O)[C@H](O)c3ccc(c(Cl)c3)Oc3cc2cc(c3O[C@@H]2O[C@H](CO)[C@@H](O)[C@H](O)[C@H]2O[C@H]2C[C@](C)(N)[C@H](O)[C@H](C)O2)Oc2ccc(cc2Cl)[C@H]1O    34%
CSCC[C@H](NC=O)C(=O)N[C@@H](CC(C)C)C(=O)N[C@@H](Cc1ccccc1)C(=O)NCC(N)=O [FP1, fMLFG-NH2] (For-MLFG-NH2)    27%
CSCC[C@H](NC=O)C(=O)N[C@@H](CC1CCCCC1)C(=O)N[C@@H](Cc1ccccc1)C(=O)NCC(N)=O [FP11, fM-Cha-FG-NH2] (For-M[Cha]FG-NH2)    27%

Below: the item to evaluate.
Item `CN[C@H](CC(C)C)C(=O)N[C@H]1C(=O)N[C@@H](CC(N)=O)C(=O)N[C@H]2C(=O)N[C@H]3C(=O)N[C@H](C(=O)N[C@H](C(=O)NCCCn4cc(C[C@H](NC(=O)CNC(=O)[C@H](Cc5ccccc5)NC(=O)[C@H](CC5CCCCC5)NC(=O)[C@H](CCSC)NC=O)C(N)=O)nn4)c4cc(O)cc(O)c4-c4cc3ccc4O)[C@H](O)c3ccc(c(Cl)c3)Oc3cc2cc(c3O[C@@H]2O[C@H](CO)[C@@H](O)[C@H](O)[C@H]2O[C@H]2C[C@](C)(N)[C@H](O)[C@H](C)O2)Oc2ccc(cc2Cl)[C@H]1O` : provide Emax
24%

* * *

TESTED_SYSTEM: human FPR2 (Homo sapiens)
Construct: expressed in transfected cells
Sequence (P25090 1-351): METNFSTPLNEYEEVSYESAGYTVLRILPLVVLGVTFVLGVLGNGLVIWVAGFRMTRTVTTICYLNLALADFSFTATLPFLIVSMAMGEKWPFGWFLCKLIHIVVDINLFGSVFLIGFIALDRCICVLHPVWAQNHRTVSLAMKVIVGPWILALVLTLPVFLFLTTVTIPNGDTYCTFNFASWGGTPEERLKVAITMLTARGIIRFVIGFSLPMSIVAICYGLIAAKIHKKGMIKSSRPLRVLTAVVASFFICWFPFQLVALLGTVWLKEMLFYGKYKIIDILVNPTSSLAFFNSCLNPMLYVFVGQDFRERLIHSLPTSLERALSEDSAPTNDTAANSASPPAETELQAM
PROTOCOL_SUMMARY: ERK1/2 phosphorylation, CHO cells expressing FPR2
Format: cell-based
RUN_CONDITIONS: 5 min, normalized to 10% FBS, mean ± SEM
Procedure: FlpIn Chinese hamster ovary (CHO) cells stably expressing either the human FPR1 or FPR2. Both of the cell lines were cultured in Dulbecco’s modified eagle medium (DMEM), which contained 10% foetal bovine serum (FBS, JRH Biosciences) and 500 µg/mL of the antibiotic hygromycin-B (Invitrogen Inc). […] Non-linear regression was performed using GraphPrism 9.0. […] Significance was determined using Student’s unpaired t test, with two-tailed p values of <0.05 considered statistically significant.
Non-standard residues stand in square brackets, D forms with d. Residues, ends and D or L forms follow the SMILES beside them. *: point of attachment. Cha = N[C@@H](CC1CCCCC1)C(=O)O; For = O=C*
# maps each entry to its Emax
The reply should contain only the number, in %.

Study these solved cases before continuing.
CN[C@H](CC(C)C)C(=O)N[C@H]1C(=O)N[C@@H](CC(N)=O)C(=O)N[C@H]2C(=O)N[C@H]3C(=O)N[C@H](C(=O)N[C@H](C(=O)NCCCn4cc(C[C@H](NC(=O)CNC(=O)[C@H](Cc5ccccc5)NC(=O)[C@H](CC5CCCCC5)NC(=O)[C@H](CCSC)NC=O)C(N)=O)nn4)c4cc(O)cc(O)c4-c4cc3ccc4O)[C@H](O)c3ccc(c(Cl)c3)Oc3cc2cc(c3O[C@@H]2O[C@H](CO)[C@@H](O)[C@H](O)[C@H]2O[C@H]2C[C@](C)(N)[C@H](O)[C@H](C)O2)Oc2ccc(cc2Cl)[C@H]1O    84
CSCC[C@H](NC=O)C(=O)N[C@@H](CC(C)C)C(=O)N[C@@H](Cc1ccccc1)C(=O)O [fMLF, N-formyl-Met-Leu-Phe, reference compound]    99
CSCC[C@H](NC=O)C(=O)N[C@@H](CC(C)C)C(=O)N[C@@H](Cc1ccccc1)C(=O)NCC(N)=O [FP1, fMLFG-NH2] (For-MLFG-NH2)    82
CSCC[C@H](NC=O)C(=O)N[C@@H](CC1CCCCC1)C(=O)N[C@@H](Cc1ccccc1)C(=O)NCC(N)=O [FP11, fM-Cha-FG-NH2] (For-M[Cha]FG-NH2)    81

Below: the item to evaluate.
Enter Emax (test system human FPR2 (Homo sapiens)) for `CN[C@H](CC(C)C)C(=O)N[C@H]1C(=O)N[C@@H](CC(N)=O)C(=O)N[C@H]2C(=O)N[C@H]3C(=O)N[C@H](C(=O)N[C@H](C(=O)NCCCn4cc(C[C@H](NC(=O)CNC(=O)[C@H](Cc5ccccc5)NC(=O)[C@H](CC(C)C)NC(=O)[C@H](CCSC)NC=O)C(N)=O)nn4)c4cc(O)cc(O)c4-c4cc3ccc4O)[C@H](O)c3ccc(c(Cl)c3)Oc3cc2cc(c3O[C@@H]2O[C@H](CO)[C@@H](O)[C@H](O)[C@H]2O[C@H]2C[C@](C)(N)[C@H](O)[C@H](C)O2)Oc2ccc(cc2Cl)[C@H]1O`
99
